# EXPERIMENT_NOTES: chemical genetic growth profiling, strain panel (AID 1159580);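 note: tested at 20 µM; growth read once vehicle control cultures reached saturation at 30 °C; 1 = growth at the plate median or of vehicle wells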
# MEASUREMENT_SETUP: S. cerevisiae deletion strains, growth OD, locus YNL250W, strain rad50
Hit rate of the full screen: of about 5,500 compounds, about 2,000 (36%) were called active. Roughly 18% stayed inconclusive and do not appear here. Cut-off read from the data, not from the text of the source: active = normalized growth mostly below about 0.91 (no sharp cut-off); inconclusive = no clear call, values can overlap the other calls; inactive = mostly above about 0.92. The list shows a part of the results.
Thanks in advance; please answer with one of these: T for active, F for inactive

O=[N+]([O-])c1cc(O)c(O)c([N+](=O)[O-])c1; F
NC[C@H](O)c1ccc(O)c(O)c1; F
CCCCC1(COC(=O)CCC(=O)O)C(=O)N(c2ccccc2)N(c2ccccc2)C1=O; F
C=C(C)[C@H]1CC=C(C(=O)O)CC1; T
CN1C(CC(=O)c2ccccc2)CCCC1CC(O)c1ccccc1 (stereo not given); F
Cc1occc(=O)c1/C=C/O; F

**Q:** Please let me know the test result on file for "COC(C)(C)CCC[C@H](C)C/C=C/C(C)=C/C(=O)OC(C)C" .
**A:** F

**Q:** Please let me know the test result on file for CC(C)NCC(O)c1ccc(O)c(O)c1 (stereo not given) .
**A:** F

**Q:** Please let me know the test result on file for "CNC[C@@H](O)c1ccc(O)c(O)c1" .
**A:** F

**Q:** Please let me know the test result on file for "CC(=O)Nc1cc([As](=O)(O)O)ccc1O" .
**A:** F

---

# EXPERIMENT_NOTES: chemical genetic growth profiling, strain panel (AID 1159580)
# MEASUREMENT_SETUP: S. cerevisiae deletion strains, growth OD, locus YOR001W, strain rrp6
The campaign covered roughly 5,500 compounds. About 2,000 (36%) were called active. Roughly 18% stayed inconclusive and do not appear here. No stated cut-off is given here; in the data, active means normalized growth mostly below about 0.91 (no sharp cut-off); inconclusive means no clear call, values can overlap the other calls; inactive means mostly above about 0.92. This is one part of the list.
Thanks in advance; please answer with one of these: YES = active, NO = inactive

Example entries begin here.
Oc1c(I)cc(Cl)c2cccnc12; YES
C1CNCCN1; NO
COc1cccc(/C=C/C(=O)O)c1C(C)C; NO
CCCCC1=NC2(CCCC2)C(=O)N1Cc1ccc(-c2ccccc2-c2nn[nH]n2)cc1; NO

**Q:** Please let me know the test result on file for "Cc1ccc(/C(=C\CN2CCCC2)c2ccccn2)cc1" .
**A:** NO

---

# EXPERIMENT_NOTES: chemical genetic growth profiling, strain panel (AID 1159580);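 note: tested at 20 µM; growth read once vehicle control cultures reached saturation at 30 °C; 1 = growth at the plate median or of vehicle wells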
# MEASUREMENT_SETUP: S. cerevisiae deletion strains, growth OD, locus YCL011C, strain gbp2, stronger effect = lower value
The campaign covered roughly 5,500 compounds. About 2,000 (36%) were called active. About 18% were inconclusive and are not listed. The list shows a part of the results.
Some molecules, each annotated with its measured normalized growth.

Study these solved cases before continuing.
O=C(OC1Cc2c(O)cc(O)cc2OC1c1cc(O)c(O)c(O)c1-c1c(C2Oc3cc(O)cc(O)c3CC2OC(=O)c2cc(O)c(O)c(O)c2)cc(O)c(O)c1O)c1cc(O)c(O)c(O)c1 (stereo not given); 1.01 (inactive)
CCN(CC)CCOc1ccc(/C(=C(\Cl)c2ccccc2)c2ccccc2)cc1; 0.0699 (active)
CC(C)=CCC/C(C)=C/CC/C(C)=C/CC/C(C)=C/CC/C(C)=C/CC/C(C)=C/CC/C(C)=C/CC/C(C)=C/CC/C(C)=C/CO; 0.985 (inactive)

**Q:** Quickly give me recorded normalized growth for CO[C@H]1/C=C/O[C@@]2(C)Oc3c(C)c(O)c4c(O)c(c(/C=N/N5CCN(C)CC5)c(O)c4c3C2=O)NC(=O)/C(C)=C\C=C\C(C)[C@H](O)[C@@H](C)[C@@H](O)[C@@H](C)[C@@H](OC(C)=O)[C@@H]1C (stereo not given in full)
**A:** 1.02 (inactive)

**Q:** Quickly give me recorded normalized growth for "CCN(CC)CCOc1ccc2c(c1)C(=O)c1cc(OCCN(CC)CC)ccc1-2"
**A:** 0.977 (inactive)

**Q:** Quickly give me recorded normalized growth for C=CC(C1=CC(=O)C(OC)=CC1=O)c1ccc(OC)cc1 (stereo not given)
**A:** 0.857 (active)

**Q:** Quickly give me recorded normalized growth for CC1(C)C(C(Cl)Cl)C2(Cl)C(Cl)C(Cl)C1(Cl)C2(Cl)Cl (stereo not given)
**A:** 0.993 (inactive)

**Q:** Quickly give me recorded normalized growth for CCCC(C)C1(CC)C(=O)N=C(S)NC1=O (stereo not given)
**A:** 1.01 (inactive)

**Q:** Quickly give me recorded normalized growth for C=CC(C)(O)CC/C=C(\C)CCC=C(C)C (stereo not given)
**A:** 0.949 (inactive)

**Q:** Quickly give me recorded normalized growth for "NC[C@H](O)c1ccc(O)c(O)c1"
**A:** 0.999 (inactive)

**Q:** Quickly give me recorded normalized growth for C=C(NC(=O)C(=C)NC(=O)c1csc(C2=NC3c4csc(n4)C4NC(=O)c5csc(n5)C(C(C)(O)C(C)O)NC(=O)C5CSC(=N5)C(=CC)NC(=O)C(C(C)O)NC(=O)c5csc(n5)C3(CC2)NC(=O)C(C)NC(=O)C(=C)NC(=O)C(C)NC(=O)C(C(C)CC)NC2C=Cc3c(C(C)O)cc(nc3C2O)C(=O)OC4C)n1)C(N)=O (stereo not given)
**A:** 1 (inactive)

**Q:** Quickly give me recorded normalized growth for CC(=O)O[C@H]1C[C@@H](OC(C)=O)C(C)(C)C2C[C@@H](OC(C)=O)[C@@]3(C)C4=CC(=O)O[C@@H](c5ccoc5)[C@]4(C)CCC3[C@]21C (stereo not given in full)
**A:** 1 (inactive)

**Q:** Quickly give me recorded normalized growth for "C1CCN2C[C@@H]3C[C@H](CN4CCCC[C@@H]34)[C@H]2C1"
**A:** 1 (inactive)

**Q:** Quickly give me recorded normalized growth for "O=[N+]([O-])c1ccc(O)c([N+](=O)[O-])c1"
**A:** 0.807 (active)

**Q:** Quickly give me recorded normalized growth for CC(=O)O[C@@H]1C[C@@]2(C)[C@H](c3ccoc3)C[C@H]3O[C@]32[C@]2(C)C(=O)C(O)=C3C(C)(C)C(=O)C=C[C@]3(C)C12 (stereo not given in full)
**A:** 0.88 (active)

**Q:** Quickly give me recorded normalized growth for C=CC(C1=CC(=O)C(OC)=CC1=O)c1ccc(O)cc1 (stereo not given)
**A:** 0.998 (inactive)

**Q:** Quickly give me recorded normalized growth for "O=C(O)CF"
**A:** 1.03 (inactive)

**Q:** Quickly give me recorded normalized growth for CC1(C)CCCC2(C)C3C1[C@@H](O)C2(C)C[C@H]3O (stereo not given in full)
**A:** 1.03 (inactive)

**Q:** Quickly give me recorded normalized growth for C=CC(C1=CC(=O)C(OC)=CC1=O)c1ccccc1 (stereo not given)
**A:** 0.843 (active)

---

# EXPERIMENT_NOTES: chemical genetic growth profiling, strain panel (AID 1159580);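 note: tested at 20 µM; growth read once vehicle control cultures reached saturation at 30 °C; 1 = growth at the plate median or of vehicle wells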
# MEASUREMENT_SETUP: S. cerevisiae deletion strains, growth OD, locus YLR342W, strain FKS1
The whole screen tested about 5,500 compounds, of which about 2,000 (36%) were called active. About 18% were inconclusive and are not listed. No stated cut-off is given here; in the data, active means normalized growth mostly below about 0.91 (no sharp cut-off); inconclusive means no clear call, values can overlap the other calls; inactive means mostly above about 0.92. This is one part of the list.
Thanks in advance; please answer with one of these: 1.0 = active, 0.0 = inactive

Example entries begin here.
CC(=O)c1c(O)c(C)c(O)c2c1OC1=CC(=O)C(C(C)=O)C(=O)C12C (centres undefined); 0.0
C=CC(C1=CC(=O)C(OC)=CC1=O)c1ccccc1 (centres undefined); 1.0

**Q:** Please let me know the test result on file for "CCN(CC)CCOc1ccc2c(c1)C(=O)c1cc(OCCN(CC)CC)ccc1-2" .
**A:** 0.0

**Q:** Please let me know the test result on file for CCC(Cc1c(I)cc(I)c(N)c1I)C(=O)O (centres undefined) .
**A:** 0.0

---

Some compounds, each annotated with its measured normalized growth.
# EXPERIMENT_NOTES: chemical genetic growth profiling, strain panel (AID 1159580);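 note: tested at 20 µM; growth read once vehicle control cultures reached saturation at 30 °C; 1 = growth at the plate median or of vehicle wells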
# MEASUREMENT_SETUP: S. cerevisiae deletion strains, growth OD, locus YPL204W, strain HRR25, stronger effect = lower value
The whole screen tested about 5,500 compounds, of which about 2,000 (36%) were called active. About 18% were inconclusive and are not listed. Some of the results follow.

**Q:** Quickly give me recorded normalized growth for CC(C)c1ccc(NCC(O)CSc2ccccc2)cc1 (configuration not stated)
**A:** 0.696 (inactive)

**Q:** Quickly give me recorded normalized growth for "Cn1c(CSCCOc2ccccc2)nnc1SCc1ccc(Cl)cc1Cl"
**A:** 1.04 (inactive)

**Q:** Quickly give me recorded normalized growth for "Fc1cccc(Cl)c1CSc1nncn1-c1ccc(OCc2ccccc2)cc1"
**A:** 0.973 (inactive)

**Q:** Quickly give me recorded normalized growth for "CC(=O)Nc1ccc(/C=C/[N+](=O)[O-])cc1"
**A:** 0.791 (inactive)

**Q:** Quickly give me recorded normalized growth for "FC(F)(F)c1cccc(NC(=S)Nc2csc(C(F)(F)F)c2-c2ccccc2)c1"
**A:** 0.955 (inactive)

All figures here come from PubChem BioAssay AID1159580.
